From various publications: pKi for 5-hydroxytryptamine receptor 1A (Rattus norvegicus, UniProt P19327).
pKi: −log10 of the molar value.
Parameter: pKi

// solved cases for pKi follow
compound=Cc1cn2c3c(=O)n(C)c(=O)n(C)c3nc2n1CCCCCN1CCN(c2ccc(Cl)cc2)CC1 experimental_value=7.21
compound=Cc1ccc(-c2c(=O)n(CCCCN3CC=C(c4c[nH]c5ccc(Cl)cc45)CC3)c(=O)n3ccccc23)cc1 experimental_value=6.57
compound=O=C(CCCN1CCN(c2cccc(Cl)c2Cl)CC1)c1cc2c3c(c1)CCN3C(=O)CC2 experimental_value=7.27

a = CC(C)Oc1ccccc1OCCNCc1cccc(-c2ccco2)c1
b = CN1CCN(c2nc3ccccc3c3c2CCc2sccc2-3)CC1
### Prompt // compare measured pKi between a and b ; output the lower one Mark your selection by writing its label.
### Response b
(b: 4.92, a: 7.17)
